Test system: U251 CNS
Assay: NCI tumour cell line growth inhibition, 48 h
Documented TGI across a set of compounds

compound | testSystem | TGI
Clc1ccc(Cl)c(SCCCN2CCNCC2)c1 | U251 CNS | 34.6 µM
O=C(OCc1ccc2c(Cl)cc(Cl)c(O)c2n1)N1CCN(C(=O)c2cc3cc(F)ccc3[nH]2)CC1 | U251 CNS | > 100 µM
COc1ccc2c(Oc3ccc(NC(=O)c4c(C)n(CC(C)(C)O)n(-c5ccccc5)c4=O)nc3)ccnc2c1 | U251 CNS | > 100 µM
COC(=O)C1(Cc2ccc3c(c2)CCC3)Cc2cc3c(cc2C1)CCC3 | U251 CNS | > 100 µM
S=C1CC(c2ccccc2)Sc2ccc(Cl)cc2N1 (centres undefined) | U251 CNS | > 100 µM
CC1C(c2ccc3c(c2)OCO3)c2cc3c(cc2OC1N1CCOCC1)OCO3 (centres undefined) | U251 CNS | > 83.8 µM
Cc1cccc(C(C)C)c1NC(=O)C(=O)C(C(=O)c1ccccc1F)C1OC(=O)c2ccccc21 (centres undefined) | U251 CNS | 37.3 µM
C[C@]12CC[C@@H]3c4ccc(O)c([N+](=O)[O-])c4CC[C@H]3[C@@H]1CC[C@@H]2NS(=O)(=O)c1cccc(Br)c1 | U251 CNS | 4.28 µM
CCCCc1c2c(nc3c1CCC/C3=C\c1ccccc1)/C(=C/c1ccccc1)CCC2 | U251 CNS | > 100 µM

----------
Documented TGI across a set of compounds
System: UO-31 renal
Assay: NCI tumour cell line growth inhibition, 48 h
readout: TGI (µM)

compound | qualifierOperator | resultValue
CCN(CC)CCNc1ccc2ncn3c4cc(OC)c(OC)c(=O)c4c(O)c1c23 | = | 25.7
[F][Sn]([F])([c]1ccccc1)[c]1ccccc1 | = | 3.34
CCN1C(=O)N(CC)C2Nn3c(s/c(=C4\C(=O)N(C)c5ccccc54)c3=O)=NC21 (stereo not given) | > | 100
COC(=O)C1(Cc2ccc3c(c2)CCC3)Cc2cc3c(cc2C1)CCC3 | > | 100
COC(=O)c1cccc2cccc(C(=O)Nc3ccc(Cl)cc3)c12 | > | 100
CC(C)(C)OC(=O)C1C(=O)NC(=O)CC1C(COCc1ccccc1)OCc1ccccc1 (stereo not given) | = | 55.8
O=C(N/N=C/c1c(Cl)cccc1Cl)c1ccc(C(F)(F)F)nc1Nc1cccc(C(F)(F)F)c1 | = | 5.82
O=[N+]([O-])c1ccc(C2=Nc3ccccc3SC(c3ccccc3)C2)cc1 (stereo not given) | = | 25.8
CCOC(=O)C(C)c1nc2c(Cl)c3ncccc3cc2[nH]c1=O (stereo not given) | > | 100
c1ccc(-c2cnc(-c3ccc(-c4ncc(-c5ccccc5)o4)cc3)o2)cc1 | > | 100

----------
Tested on: IGROV1 ovarian
Assay: NCI tumour cell line growth inhibition, 48 h
Documented TGI across a set of compounds

compound | TGI
Cc1ncc([N+](=O)[O-])n1CCNS(=O)(=O)CCCn1ncnc1[N+](=O)[O-] | > 100 µM
CCCOC(=O)NC(C)C(=O)NC(CCC(=O)NC(CCCC(N)C(=O)O)C(=O)NC(C)C(=O)O)C(=O)O (centres undefined) | > 100 µM
CC(C)CCn1nc(N)c2nc3ccccc3nc21 | > 100 µM
COc1ccccc1N1CCN(CCCNC(=O)c2cc(Cl)c(N)c(Cl)c2)CC1 | > 100 µM
COc1ccc2c3c(Nc4ccc(/C(C)=N/O)cc4)[nH]c4ccccc4c-3c(N=O)c2c1 | 29.2 µM
COC(=O)c1cccc2cccc(C(=O)Nc3ccc(Cl)cc3)c12 | > 100 µM
O=C(NO)c1ccc(CN(c2cnccn2)c2cnccn2)cc1 | 35.2 µM
CC1(C)OC2CC(=O)OCC23C1CC(=O)C1(C)C3CCC2(C)C(c3ccoc3)OC(=O)C3OC321 (centres undefined) | > 125 µM
CCCCCCCCCCCCOC1C(C(CC(=O)NCCN2CCCC2)NS(=O)(=O)c2cc(Cl)cc(Cl)c2)OC2OC(C)(C)OC21 (centres undefined) | 3.6 µM
